- study system: T1, human SIRPβ1 isoform 1 on cells (human, UniProt O00241 30-398)
- T1 construct: On CHO cells (low level), on BWZ/BW5147.G.1.4 cells (reporter cells co-express human DAP12) or on primary human myeloid cells; also called huSIRPβ1; BWZ-huSIRPβ1
- T1 sequence (O00241 30-398): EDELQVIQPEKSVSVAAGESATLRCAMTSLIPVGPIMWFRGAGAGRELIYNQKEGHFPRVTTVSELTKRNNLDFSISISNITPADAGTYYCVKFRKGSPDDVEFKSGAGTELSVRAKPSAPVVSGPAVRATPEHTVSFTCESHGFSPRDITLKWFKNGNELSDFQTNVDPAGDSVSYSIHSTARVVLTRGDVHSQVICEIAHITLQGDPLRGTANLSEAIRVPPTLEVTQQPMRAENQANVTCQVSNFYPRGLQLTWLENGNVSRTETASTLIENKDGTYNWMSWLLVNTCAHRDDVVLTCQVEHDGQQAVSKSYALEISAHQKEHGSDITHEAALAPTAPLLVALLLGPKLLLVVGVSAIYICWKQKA
- experiment: flow cytometry titration, BWZ-huSIRPβ1 cells
Listed binders paired with reported pEC50
Bear in mind: pEC50 is minus log10 of a mol/L concentration; give just that figure.

Observe how each entry below is paired with its result.
- binder: "18D5 (antibody, V domains shown) VH: QVQLQQPGAELVRPGSSVKLSCKASGYTFTSYWVHWVKQRPIQGLEWIGNIDPSDSDTHYNQKFKDKASLTVDKSSSTAYMQLSSLTFEDSAVYYCVRGGTGTMAWFAYWGQGTLVTVSA VL: DVVMTQTPLSLPVSLGDQASISCRSSQSLVHSYGNTYLYWYLQKPGQSPKLLIYRVSNRFSGVPDRFSGSGSGTDFTLKISRVEAEDLGVYFCFQGTHVPYTFGSGTKLEIK"
  pEC50: 9.32
- binder: "SB-8-15 (antibody, V domains shown, IgG) VH: QVQLQESGPGLVKPSETLSLTCAVSGYSISAHYYWGWIRQPPGKGLEWIGSIYQSGHTYYNPSLKSRVTISVDTSKNQFSLKLSSVTAADTAVYYCARGGAMTPAGMDVWGQGTTVTVSS VL: EIVMTQSPGTLSLSPGERATLSCRASQSVSSSYLAWYQQKPGQAPRLLIYGASNRATGIPDRFSGSGSGTDFTLTISRLEPEDFAVYYCQQVYSSPYTFGGGTKVEIK"
  pEC50: 9.22

Moving on to the next binder.
Quick check: pEC50 of SB-8-13 (antibody, V domains shown, IgG) VH: QVQLQESGPGLVKPSETLSLTCAVSGYSISAHYYWGWIRQPPGKGLEWIGSIFHSGHTYYNPSLKSRVTISVDTSKNQFSLKLSSVTAADTAVYYCARGGAMTPAGMDVWGQGTTVTVSS VL: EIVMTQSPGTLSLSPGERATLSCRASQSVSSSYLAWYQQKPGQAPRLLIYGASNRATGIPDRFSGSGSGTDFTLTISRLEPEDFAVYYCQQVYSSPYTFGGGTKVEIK ?
9.70
